# target_or_test_system: FAD-linked sulfhydryl oxidase ALR (Homo sapiens) (UniProt P55789)
# Sequence (P55789 whole entry, looked up): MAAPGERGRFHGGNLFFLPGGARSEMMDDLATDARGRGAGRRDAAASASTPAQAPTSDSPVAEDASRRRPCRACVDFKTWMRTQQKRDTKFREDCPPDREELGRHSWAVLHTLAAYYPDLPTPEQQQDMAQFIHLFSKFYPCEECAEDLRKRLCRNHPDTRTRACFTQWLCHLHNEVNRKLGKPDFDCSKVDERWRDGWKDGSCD
# protocol_notes: ALR-catalysed DTT oxidation blockers – biochemical, H2O2 detection, HRP-luminol luminescence, single point, primary screen (AID 485317)
# recorded_conditions: purified ALR, stronger effect = higher value, concentration not given here
In all, about 290,000 compounds went through this assay and about 11,000 (3.8%) were called active. For the sample, actives were picked, then their nearest neighbours and some compounds at random.
readout: inhibition (%)

In [3]: df
Out[3]:
                                   molecule                     target_or_test_system  unit_abbreviation  endpoint_result
0      Cc1ccc(OCc2n[nH]c(=S)n2-c2ccccc2)cc1  FAD-linked sulfhydryl oxidase ALR (Homo sapiens) (UniProt P55789)                  %             65.2
1  Cc1csc(NC(=O)CSc2ccc(-c3ccc(F)cc3)nn2)n1  FAD-linked sulfhydryl oxidase ALR (Homo sapiens) (UniProt P55789)                  %            -12.2
2  CCOC(=O)[C@H]1[C@H]2COc3cc(OC)ccc3[C@@H]2N2C(=O)CN(Cc3ccc(Cl)cc3)C(=O)[C@@]12C  FAD-linked sulfhydryl oxidase ALR (Homo sapiens) (UniProt P55789)                  %            -2.14
3  COC(=O)c1[nH]c2ccccc2c1NC(=O)CN1CCCc2ccccc21  FAD-linked sulfhydryl oxidase ALR (Homo sapiens) (UniProt P55789)                  %            -3.93
4    O=c1oc2ccccc2cc1-c1csc(Nc2ccc(O)cc2)n1  FAD-linked sulfhydryl oxidase ALR (Homo sapiens) (UniProt P55789)                  %             32.6
5  O=C(NNC1CC(=O)N(c2cccc(Cl)c2)C1=O)c1cccnc1 (stereo not given)  FAD-linked sulfhydryl oxidase ALR (Homo sapiens) (UniProt P55789)                  %             11.7
6  Cc1csc(NC(=O)CSc2nc(=O)cc(N)n2-c2ccc(F)cc2)n1  FAD-linked sulfhydryl oxidase ALR (Homo sapiens) (UniProt P55789)                  %             91.6
7  COc1ccccc1CCNC(=O)C(=O)NCCC1CCCCN1S(=O)(=O)c1cccs1 (stereo not given)  FAD-linked sulfhydryl oxidase ALR (Homo sapiens) (UniProt P55789)                  %            -56.8
8  O=C(NCc1ccccc1CN1CCCC1)c1cccc(S(=O)(=O)Nc2ccc(F)cc2)c1  FAD-linked sulfhydryl oxidase ALR (Homo sapiens) (UniProt P55789)                  %            -1.54
9    Cc1ccc(NCc2n[nH]c(=S)n2-c2ccccc2)cc1Cl  FAD-linked sulfhydryl oxidase ALR (Homo sapiens) (UniProt P55789)                  %             88.3
